Values compiled from PubChem BioAssay AID1347074.

Target: Endoribonuclease Dicer (Homo sapiens)
Assay: Dicer cleavage of pre-miR-21 blockers – biochemical, cat-ELCCA, chemiluminescence, primary screen (AID 1347074);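 further: plate controls were vehicle for no effect and no enzyme for full effect; higher signal means more uncleaved substrate so more Dicer inhibition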
Settings: cat-ELCCA pre-miR-21 Dicer processing, at 25 µM, active compounds read high
Out of some 47,000 compounds screened, about 2,800 (6%) were called active. The list comes from a sample in which actives are over-represented; it also holds close analogues and randomly drawn compounds.
Classification field: enter fulfilled for z-score values not below 0.5, not fulfilled for values below it.

COMPOUND | CLASS NAME
CCOC(=O)c1c(NC(=O)c2cc3ccccc3o2)sc(C)c1C | fulfilled

**Q:** Check this compound for z-score at or above 0.5: CCOC(=O)c1sc(SC(C)C)c2c1CC(C)(C)CC2=O
**A:** not fulfilled

**Q:** Check this compound for z-score at or above 0.5: NNC(=O)Cn1nnc(-c2cccc(Cl)c2Cl)n1
**A:** fulfilled

**Q:** Check this compound for z-score at or above 0.5: CCn1nc(C)cc1-c1n[nH]c(=S)n1-c1ccccc1
**A:** not fulfilled

**Q:** Check this compound for z-score at or above 0.5: CCOc1ccc(S(=O)(=O)n2ccnc2)c2ccccc12
**A:** fulfilled

**Q:** Check this compound for z-score at or above 0.5: COc1cccc(/C=N/NC(=S)Nc2cc(C(F)(F)F)cc(C(F)(F)F)c2)c1O
**A:** fulfilled

**Q:** Check this compound for z-score at or above 0.5: Cn1c(CSc2cccs2)nnc1SCc1c(Cl)cccc1Cl
**A:** not fulfilled

**Q:** Check this compound for z-score at or above 0.5: O=C(O)CCCC(=O)Nc1ccc2c(c1)OCCO2
**A:** not fulfilled

**Q:** Check this compound for z-score at or above 0.5: C=CCOc1cccc(C2c3c(oc4ccccc4c3=O)C(=O)N2c2ccc(C)cn2)c1 (stereo unspecified)
**A:** fulfilled

====

Target: Endoribonuclease Dicer (Homo sapiens)
Assay: Dicer cleavage of pre-miR-21 blockers – biochemical, cat-ELCCA, chemiluminescence, primary screen (AID 1347074)
Settings: cat-ELCCA pre-miR-21 Dicer processing, at 25 µM
Among all 47,000 compounds or so, about 2,800 (6%) were called active. No stated cut-off is given here; in the data, active means z-score above about 3 (passing the limit was not always enough); inactive means the rest. What follows is part of a selection rich in actives, with near analogues and random picks from the rest.
Output constraint: value belongs to y (active), n (inactive)

The following molecules have reported results that may help.
MOLECULE | CLASS NAME
COc1ccc(-c2cc(C(F)(F)F)n3ncnc3n2)cc1OC | y
O=C1CC(c2ccccc2)N(c2ccc(OC(F)(F)F)cc2)C(=S)N1 (stereo not drawn) | n
Nc1cccc(-c2cc(-c3ccccc3)nc(-c3cccc(N)c3)n2)c1 | y
CNC(=O)NC(=O)CSc1ncnc2sc(-c3ccccc3)cc12 | n
C=CCOc1ccc(C2c3c(oc4ccccc4c3=O)C(=O)N2c2nncs2)cc1 (stereo not drawn) | n

**Q:** Hey, what did the test say about Cc1noc(C)c1S(=O)(=O)N(C)C1CCCCC1 ?
**A:** n

**Q:** Hey, what did the test say about CN1c2ccc(Cl)cc2C(C)(C)C12C=Nc1c(ccc3ccccc13)O2 (stereo not drawn) ?
**A:** n

**Q:** Hey, what did the test say about CN(C(=O)CSc1nc(C2CCCCC2)c(C#N)c(=O)[nH]1)c1ccccc1 ?
**A:** n

**Q:** Hey, what did the test say about Nc1nc(COc2ccccc2Cl)ncc1S(=O)(=O)c1ccccc1 ?
**A:** n

====

Reported z-score by item:
Target: Endoribonuclease Dicer (Homo sapiens)
Experiment: Dicer cleavage of pre-miR-21 blockers – biochemical, cat-ELCCA, chemiluminescence, primary screen (AID 1347074)
Details: cat-ELCCA pre-miR-21 Dicer processing, at 25 µM, active compounds read high
Among all 47,000 compounds or so, about 2,800 (6%) were called active. The sample holds actives, similar compounds and a random draw of the others, so the mix is not that of the screen.
Hey, just send me the number, nothing else.

Please review the following examples before continuing.
COMPOUND | z-score
O=[N+]([O-])c1cccc(C2CC(c3ccccc3)=Nc3ccccc3S2)c1 (stereo unspecified) | -1.81
NC(=O)c1c(NC(=O)c2sc3cc(Cl)ccc3c2Cl)sc2c1CCC2 | 0.57
Fc1cccc(-c2nn3c(COc4ccccc4)nnc3s2)c1 | 0.92
Cc1ccc(O)c(-c2cnc3ccccc3n2)c1 | -1.69
C=CCOc1ccc(C(=O)N(Cc2ccc(OC)cc2)C2CCS(=O)(=O)C2)cc1 (stereo unspecified) | 1.67
O=S(=O)(c1cccc(-c2cn3ccccc3n2)c1)N1CCCC1 | -0.49

Measured z-score of Cc1cccn2cc(-c3cccc(S(=O)(=O)N4CCCCC4)c3)nc12 : 0.61

Measured z-score of Cc1ccc(C2Nc3nonc3NC3=C2C(=O)CC(C)(C)C3)cc1 (stereo unspecified) : -0.08

Measured z-score of O=C(Nc1ccccc1)O/N=C1\CCSC1 : 0.99

Measured z-score of O=C(CSc1nc(-c2ccc(F)cc2)cc(C(F)(F)F)n1)N1CCOCC1 : -0.77

Measured z-score of Cc1ccc2nc(-c3cccnc3)[nH]c2c1 : -0.74

====

Target: Endoribonuclease Dicer (Homo sapiens) (UniProt Q9UPY3)
Sequence (Q9UPY3 whole entry, looked up): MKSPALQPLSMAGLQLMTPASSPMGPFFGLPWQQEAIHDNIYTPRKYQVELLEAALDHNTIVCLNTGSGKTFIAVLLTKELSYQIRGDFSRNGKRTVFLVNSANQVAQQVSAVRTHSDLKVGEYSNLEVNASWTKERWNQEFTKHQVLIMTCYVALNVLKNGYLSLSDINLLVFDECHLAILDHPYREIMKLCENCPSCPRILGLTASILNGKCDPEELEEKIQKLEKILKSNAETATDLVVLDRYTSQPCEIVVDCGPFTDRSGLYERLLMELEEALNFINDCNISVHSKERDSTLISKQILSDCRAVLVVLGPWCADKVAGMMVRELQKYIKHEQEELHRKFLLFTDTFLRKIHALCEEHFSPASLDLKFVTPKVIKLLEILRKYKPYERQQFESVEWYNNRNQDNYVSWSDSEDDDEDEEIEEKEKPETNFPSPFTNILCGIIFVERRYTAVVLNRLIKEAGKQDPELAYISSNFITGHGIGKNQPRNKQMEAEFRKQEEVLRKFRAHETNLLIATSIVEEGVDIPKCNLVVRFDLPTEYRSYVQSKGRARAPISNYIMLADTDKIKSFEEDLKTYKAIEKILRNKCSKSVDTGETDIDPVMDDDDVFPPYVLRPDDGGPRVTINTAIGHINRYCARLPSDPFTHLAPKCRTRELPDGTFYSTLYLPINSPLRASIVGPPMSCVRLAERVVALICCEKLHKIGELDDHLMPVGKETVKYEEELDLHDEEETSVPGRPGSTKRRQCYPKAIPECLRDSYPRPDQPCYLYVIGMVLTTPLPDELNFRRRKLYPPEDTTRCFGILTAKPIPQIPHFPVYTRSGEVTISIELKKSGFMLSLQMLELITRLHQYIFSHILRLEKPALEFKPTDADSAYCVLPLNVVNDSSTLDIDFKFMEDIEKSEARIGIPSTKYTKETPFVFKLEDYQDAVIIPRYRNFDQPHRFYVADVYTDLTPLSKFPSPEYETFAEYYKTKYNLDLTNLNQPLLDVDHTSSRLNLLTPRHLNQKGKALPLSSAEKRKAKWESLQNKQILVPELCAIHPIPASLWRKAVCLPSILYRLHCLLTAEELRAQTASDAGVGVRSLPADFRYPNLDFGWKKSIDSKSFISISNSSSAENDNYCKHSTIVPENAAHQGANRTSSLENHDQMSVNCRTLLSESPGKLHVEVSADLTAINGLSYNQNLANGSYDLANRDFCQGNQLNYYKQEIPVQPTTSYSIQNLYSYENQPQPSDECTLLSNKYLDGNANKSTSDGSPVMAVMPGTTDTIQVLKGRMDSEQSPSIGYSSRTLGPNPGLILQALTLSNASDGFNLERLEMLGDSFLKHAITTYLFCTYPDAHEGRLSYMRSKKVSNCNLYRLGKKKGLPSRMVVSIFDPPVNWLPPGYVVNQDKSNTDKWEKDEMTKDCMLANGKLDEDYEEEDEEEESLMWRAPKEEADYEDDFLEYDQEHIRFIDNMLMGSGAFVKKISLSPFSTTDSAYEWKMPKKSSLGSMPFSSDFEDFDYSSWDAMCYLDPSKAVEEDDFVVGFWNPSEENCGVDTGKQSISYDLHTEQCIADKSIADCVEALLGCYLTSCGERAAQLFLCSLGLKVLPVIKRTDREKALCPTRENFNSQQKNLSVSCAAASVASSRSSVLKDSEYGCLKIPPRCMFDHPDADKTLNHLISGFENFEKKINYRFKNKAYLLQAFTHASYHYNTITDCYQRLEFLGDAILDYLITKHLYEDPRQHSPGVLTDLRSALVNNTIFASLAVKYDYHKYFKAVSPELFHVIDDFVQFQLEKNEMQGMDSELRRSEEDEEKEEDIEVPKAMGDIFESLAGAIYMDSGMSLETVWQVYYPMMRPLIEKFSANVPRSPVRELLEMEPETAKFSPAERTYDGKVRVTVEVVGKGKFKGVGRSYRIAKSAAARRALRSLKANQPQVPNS
Experiment: Dicer cleavage of pre-miR-21 blockers – biochemical, cat-ELCCA, chemiluminescence, primary screen (AID 1347074);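 further: plate controls were vehicle for no effect and no enzyme for full effect; higher signal means more uncleaved substrate so more Dicer inhibition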
Settings: cat-ELCCA pre-miR-21 Dicer processing, at 25 µM
The campaign covered roughly 47,000 compounds. About 2,800 (6%) were called active. Cut-off read from the data, not from the text of the source: active = z-score above about 3 (passing the limit was not always enough); inactive = the rest. The sample as a whole holds a higher share of actives than the screen did.
Output constraint: value belongs to y for active, n for inactive

The following compounds have reported results that may help.
COMPOUND | CLASS NAME
CCCc1cc(=O)oc2c1c(C)nn2-c1cccc(Cl)c1 | n
CCCC1=NN(c2ccc(S(N)(=O)=O)cc2)C(=O)C1 | n
CN(C)c1ccc(C2Nc3ccccc3NC3=C2C(=O)CC(c2ccc(Cl)cc2)C3)cc1 (stereo unspecified) | n
Cc1cc2c(cc1C)CSC(C)(c1cccc([N+](=O)[O-])c1)SC2 | n

**Q:** Hey, what did the test say about O=c1[nH]nc(Sc2ncc(Br)cc2[N+](=O)[O-])n1-c1ccc(Cl)cc1 ?
**A:** n

**Q:** Hey, what did the test say about CCCCc1ccc(-n2c(-c3ccc(F)cc3)coc2=O)cc1 ?
**A:** y

**Q:** Hey, what did the test say about COC(=O)c1ccc(C2Nc3ccccc3NC3=C2C(=O)CC(c2ccccc2)C3)cc1 (stereo unspecified) ?
**A:** y

====

Molecular target: Endoribonuclease Dicer (Homo sapiens)
Test: Dicer cleavage of pre-miR-21 blockers – biochemical, cat-ELCCA, chemiluminescence, primary screen (AID 1347074);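 further: plate controls were vehicle for no effect and no enzyme for full effect; higher signal means more uncleaved substrate so more Dicer inhibition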
Conditions: cat-ELCCA pre-miR-21 Dicer processing, at 25 µM, active compounds read high
The whole screen tested about 47,000 compounds, of which about 2,800 (6%) were called active. For the sample, actives were picked, then their nearest neighbours and some compounds at random.
Classification field: enter criterion met for z-score values not below 0.5, criterion not met for values below it.

The following molecules have reported results that may help.
MOLECULE | CLASS NAME
COc1ccc(-n2ncc(C(=O)NCc3c(Cl)cccc3Oc3ccccc3)c2C)cc1 | criterion not met
Fc1ccc(NC2=NCCN=C(Nc3ccc(F)cc3F)SS2)c(F)c1 | criterion not met

**Q:** Check this molecule for z-score at or above 0.5: O=C1C(=O)N(c2cccnc2)C(c2ccc(Br)cc2)/C1=C(\O)c1ccc(Cl)cc1 (stereo unspecified)
**A:** criterion not met

**Q:** Check this molecule for z-score at or above 0.5: CCOC(=O)/C(C#N)=C/Nc1ccc(OC)c(C(=O)OC)c1OC
**A:** criterion not met

**Q:** Check this molecule for z-score at or above 0.5: COc1ccc(-c2noc(-c3ccc(Br)cc3)n2)cc1
**A:** criterion met

====

Target: Endoribonuclease Dicer (Homo sapiens) (UniProt Q9UPY3)
Assay: Dicer cleavage of pre-miR-21 blockers – biochemical, cat-ELCCA, chemiluminescence, primary screen (AID 1347074);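 further: plate controls were vehicle for no effect and no enzyme for full effect; higher signal means more uncleaved substrate so more Dicer inhibition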
Settings: cat-ELCCA pre-miR-21 Dicer processing, at 25 µM
Screen size: about 47,000 compounds; about 2,800 (6%) were called active. Cut-off read from the data, not from the text of the source: active = z-score above about 3 (passing the limit was not always enough); inactive = the rest. The sample holds actives, similar compounds and a random draw of the others, so the mix is not that of the screen.
Output constraint: value belongs to true (1) = active, false (0) = inactive

**Q:** Hey, what did the test say about CC1=NOC(=O)C1C(c1cccc(Br)c1)c1c(C)[nH]n(-c2ccccc2)c1=O (stereo unspecified) ?
**A:** false (0)

**Q:** Hey, what did the test say about O=C1OC2(CCCCC2)OC1c1ccccc1 (stereo unspecified) ?
**A:** true (1)

**Q:** Hey, what did the test say about COc1ccc2c(c1)CCCC2=Nc1ccccc1C(F)(F)F ?
**A:** true (1)

**Q:** Hey, what did the test say about COC(OC)c1nc(SCc2ccc(Cl)cc2)ncc1C(=O)O ?
**A:** false (0)

**Q:** Hey, what did the test say about COc1csc2nc(C)cc(C)c12 ?
**A:** false (0)
